# Test system: HCVpp GT-1a (pseudotyped HCV particles, E1/E2 of GT1a H77 strain)
# Method: microbe, parasite or virus in culture
# Type: cell-based, Hepatitis C virus GT1a H77 strain
# Stated Conditions: Hepatitis C virus, 72 h, read-out: HCVpp GT-1a (EC50, M)

{"Smiles Data": "Nc1cnc(Nc2cc(Cl)cc(Cl)c2)o1", "System Name": "HCVpp GT-1a (pseudotyped HCV particles, E1/E2 of GT1a H77 strain)", "EC50 / M": "2.93e-05"}
{"Smiles Data": "Cc1nnc(Nc2cc(Cl)cc(Cl)c2)o1", "System Name": "HCVpp GT-1a (pseudotyped HCV particles, E1/E2 of GT1a H77 strain)", "EC50 / M": "3.93e-05"}
{"Smiles Data": "Nc1nc(Nc2cccc(C(F)(F)F)c2)no1", "System Name": "HCVpp GT-1a (pseudotyped HCV particles, E1/E2 of GT1a H77 strain)", "EC50 / M": "1.36e-06"}
{"Smiles Data": "Nc1nc(Nc2cc(Cl)cc(Cl)c2)no1", "System Name": "HCVpp GT-1a (pseudotyped HCV particles, E1/E2 of GT1a H77 strain)", "EC50 / M": "3.55e-06"}
{"Smiles Data": "Nc1cc(Nc2cc(Cl)cc(Cl)c2)[nH]n1", "System Name": "HCVpp GT-1a (pseudotyped HCV particles, E1/E2 of GT1a H77 strain)", "EC50 / M": "3.99e-05"}
{"Smiles Data": "Nc1noc(Nc2cc(Cl)cc(Cl)c2)n1", "System Name": "HCVpp GT-1a (pseudotyped HCV particles, E1/E2 of GT1a H77 strain)", "EC50 / M": "8.63e-06"}
